Examples of binders with documented log10(Kd) follow.
Molecular target: T1, EsCas13d, nuclease-dead (Eubacterium siraeum, UniProt B0MS50, R295A;H300A;R849A;H854A)
T1 sequence: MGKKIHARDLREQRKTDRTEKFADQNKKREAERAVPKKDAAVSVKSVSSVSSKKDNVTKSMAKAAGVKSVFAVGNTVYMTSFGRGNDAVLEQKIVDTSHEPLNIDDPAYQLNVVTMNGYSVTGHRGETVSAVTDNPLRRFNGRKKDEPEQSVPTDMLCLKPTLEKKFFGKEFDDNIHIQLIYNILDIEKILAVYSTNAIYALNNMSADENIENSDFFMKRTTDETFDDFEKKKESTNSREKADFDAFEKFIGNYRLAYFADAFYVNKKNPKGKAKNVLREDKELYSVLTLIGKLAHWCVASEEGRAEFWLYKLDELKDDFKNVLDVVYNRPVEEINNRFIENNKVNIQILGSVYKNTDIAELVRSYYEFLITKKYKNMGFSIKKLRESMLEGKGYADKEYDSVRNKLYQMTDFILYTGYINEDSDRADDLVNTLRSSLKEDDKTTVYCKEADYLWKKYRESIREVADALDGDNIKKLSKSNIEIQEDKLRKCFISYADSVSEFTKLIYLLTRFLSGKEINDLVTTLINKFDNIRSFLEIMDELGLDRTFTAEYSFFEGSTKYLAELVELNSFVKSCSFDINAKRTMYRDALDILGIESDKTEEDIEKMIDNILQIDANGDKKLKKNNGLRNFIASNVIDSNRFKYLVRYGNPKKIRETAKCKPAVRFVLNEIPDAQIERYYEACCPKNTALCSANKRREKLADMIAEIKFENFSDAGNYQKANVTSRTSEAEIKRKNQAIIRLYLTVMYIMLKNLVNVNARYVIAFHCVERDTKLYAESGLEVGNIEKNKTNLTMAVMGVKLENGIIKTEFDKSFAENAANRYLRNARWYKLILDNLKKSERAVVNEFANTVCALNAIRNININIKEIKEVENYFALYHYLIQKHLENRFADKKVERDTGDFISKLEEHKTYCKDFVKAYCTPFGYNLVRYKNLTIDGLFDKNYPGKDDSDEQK
Test: crRNA (strand 1, pre-loaded); Mg2+; 40 mM Tris-HCl pH 7.5, 150 mM NaCl, 6 mM MgCl2, 1 mM DTT, 0.1% Tween-20, 0.2 mg/ml BSA; 25 C; 10 min per concentration, then washed
Conditions: tags: His6-TwinStrep-SUMO cleaved; N-terminal SNAP kept (SNAP-Surface 488); label: 3' end held by stalled T7 RNA polymerase
Please keep in mind that the values are log10 of Kd expressed in nM.

Guide cases for log10(Kd), answers given:
Data request: # lookup: log10(Kd) of target 2 MT 5'PFS UAA 3'PFS UAU (mixed) RNA 1: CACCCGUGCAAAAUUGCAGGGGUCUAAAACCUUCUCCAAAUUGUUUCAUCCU RNA 2: GGGAAUGGAUCCACAUCUACGAAUUCUAAAGGAUGAAACAAUUUGGAGAAGUAUAGAUCGGAAGAGCACACGU
Data returned: 0.57

Data request: Dear colleague, I am looking for the recorded log10(Kd) of the following binder: target 1 MT 5'PFS AAC 3'PFS AAC (mixed) RNA 1: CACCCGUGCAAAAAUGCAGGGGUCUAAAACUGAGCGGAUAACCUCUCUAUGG RNA 2: GGGAAUGGAUCCACAUCUACGAAUUCAACCCAUAGAGAGGUUAUCCGCUCAAACAGAUCGGAAGAGCACACGU
Data returned: 1.93

Data request: Endpoint output: log10(Kd) of target 1 insC 3' of 18,insU 3' of 1 (mixed) RNA 1: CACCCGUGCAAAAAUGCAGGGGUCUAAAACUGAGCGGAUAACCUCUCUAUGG RNA 2: GGGAAUGGAUCCACAUCUACGAAUUCGUACCAUACGAGAGGUUAUCCGCUCAUCCGAGAUCGGAAGAGCACACGU . Value?
Data returned: 1.49

Further cases:
Data request: State the recorded log10(Kd) for this entry: target 2 MT 5'PFS UUG 3'PFS UCC (mixed) RNA 1: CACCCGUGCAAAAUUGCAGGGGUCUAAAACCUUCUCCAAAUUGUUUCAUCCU RNA 2: GGGAAUGGAUCCACAUCUACGAAUUCUUGAGGAUGAAACAAUUUGGAGAAGUCCAGAUCGGAAGAGCACACGU
Data returned: 1.62

Data request: Requested read-out: log10(Kd). Entry: target 2 MT 5'PFS GAU 3'PFS UGU (mixed) RNA 1: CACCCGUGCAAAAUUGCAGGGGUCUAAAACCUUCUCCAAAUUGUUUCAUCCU RNA 2: GGGAAUGGAUCCACAUCUACGAAUUCGAUAGGAUGAAACAAUUUGGAGAAGUGUAGAUCGGAAGAGCACACGU
Data returned: 1.33

Data request: Given the binder target 2 MT 5'PFS CUC 3'PFS UCG (mixed) RNA 1: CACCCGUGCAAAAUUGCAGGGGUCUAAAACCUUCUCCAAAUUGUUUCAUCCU RNA 2: GGGAAUGGAUCCACAUCUACGAAUUCCUCAGGAUGAAACAAUUUGGAGAAGUCGAGAUCGGAAGAGCACACGU , what is its reported log10(Kd)?
Data returned: 0.60

Data request: Requested field: log10(Kd). Item: target 1 MT 5'PFS UAG 3'PFS CGU (mixed) RNA 1: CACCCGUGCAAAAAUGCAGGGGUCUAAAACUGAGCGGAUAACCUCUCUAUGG RNA 2: GGGAAUGGAUCCACAUCUACGAAUUCUAGCCAUAGAGAGGUUAUCCGCUCACGUAGAUCGGAAGAGCACACGU
Data returned: 1.80

Data request: What value of log10(Kd) has been recorded for this entry: target 1 MT 5'PFS UCA 3'PFS UUA (mixed) RNA 1: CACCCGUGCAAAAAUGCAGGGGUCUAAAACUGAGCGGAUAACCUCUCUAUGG RNA 2: GGGAAUGGAUCCACAUCUACGAAUUCUCACCAUAGAGAGGUUAUCCGCUCAUUAAGAUCGGAAGAGCACACGU
Data returned: 1.03
